target: hDfr (Homo sapiens)
pIC50: −log10 of the molar value.
Assay metric: pIC50

[in] May I ask what pIC50 has been recorded for O=C(O)c1ccc2nc(-c3ccc(OCCCOc4ccc(-c5nc6ccc(C(=O)O)cc6[nH]5)cc4Br)c(Br)c3)[nH]c2c1 [Compound 21] ?
[out] < 3.40

[in] Now try O=C(O)c1ccc2nc(-c3ccc(OCCC(O)COc4ccc(-c5nc6ccc(C(=O)O)cc6[nH]5)cc4Br)c(Br)c3)[nH]c2c1 (stereo not drawn) [Compound 20b] .
[out] < 3.40

[in] Also, O=C(O)c1ccc2[nH]c(-c3cccc(OCC(O)COc4cccc(-c5nc6cc(C(=O)O)ccc6[nH]5)c4)c3)nc2c1 [Compound 19] please.
[out] < 3.30

[in] Next compound: O=C(O)c1ccc2[nH]c(-c3ccc(OCc4ccc(COc5ccc(-c6nc7cc(C(=O)O)ccc7[nH]6)cc5)cc4)cc3)nc2c1 [Compound 11]
[out] < 4.00

[in] Repeat with O=C(O)c1ccc2[nH]c(-c3ccc(OC/C=C/COc4ccc(-c5nc6cc(C(=O)O)ccc6[nH]5)cc4)cc3)nc2c1 [Compound 10]
[out] < 3.40

[in] How about O=C(O)c1ccc2[nH]c(-c3ccc(OCCC(O)COc4ccc(-c5nc6cc(C(=O)O)ccc6[nH]5)cc4)cc3)nc2c1 (stereo not drawn) [Compound 3] ?
[out] < 3.30

---

Target protein (sequence): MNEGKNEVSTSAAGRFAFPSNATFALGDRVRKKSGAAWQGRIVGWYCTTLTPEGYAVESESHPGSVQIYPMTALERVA
Assay metric: pKi
Please report pKi as the negative decimal logarithm of the molar concentration, giving only the number.

[in] Request the reported pKi associated with COc1cc(Cc2cnc(N)nc2N)cc(OC)c1OC [TMP, Trimethoprim, reference compound]
[out] 3.26

[in] And what about the molecule O=C(O)c1ccc2[nH]c(-c3ccc(OCc4ccccc4COc4ccc(-c5nc6cc(C(=O)O)ccc6[nH]5)cc4)cc3)nc2c1 [Compound 33] ?
[out] 4.96

[in] Could you do the same for O=C(O)c1ccc2nc(-c3ccc(OCC(COc4ccc(-c5nc6ccc(C(=O)O)cc6[nH]5)cc4)(COc4ccc(-c5nc6ccc(C(=O)O)cc6[nH]5)cc4)COc4ccc(-c5nc6ccc(C(=O)O)cc6[nH]5)cc4)cc3)[nH]c2c1 [Compound 31] , please?
[out] 5.72

[in] Again, but for O=C(O)c1ccc2nc(-c3ccc(OCCC(O)COc4ccc(-c5nc6ccc(C(=O)O)cc6[nH]5)cc4Br)c(Br)c3)[nH]c2c1 (centres unmarked) [Compound 20b]
[out] 5.43

[in] Proceed to O=C(O)c1ccc2[nH]c(-c3ccc(OCCC(O)COc4ccc(-c5nc6cc(C(=O)O)ccc6[nH]5)cc4)cc3)nc2c1 (centres unmarked) [Compound 3]
[out] 5.41

---

experiment: Solubility limit in assay medium; assay type: physicochemical; details: 10% DMSO, aqueous with cosolvent or surfactant or cyclodextrin
Assay metric: solubility

[in] Looking for the measured solubility of "O=C(O)c1ccc2[nH]c(-c3ccc(OCc4ccc(COc5ccc(-c6nc7cc(C(=O)O)ccc7[nH]6)cc5)cc4)cc3)nc2c1" , can you help?
[out] ≤ 100 µM

---

target: DfrB1 (Escherichia coli)
Assay metric: pKi
Would you please state pKi, meaning minus log10 of the concentration in mol/L, as a bare number?

[in] Param readout= pKi; system= DfrB1 (Escherichia coli); entry= "O=C(O)c1ccc2nc(-c3ccc(OCC(COc4ccc(-c5nc6ccc(C(=O)O)cc6[nH]5)cc4)(COc4ccc(-c5nc6ccc(C(=O)O)cc6[nH]5)cc4)COc4ccc(-c5nc6ccc(C(=O)O)cc6[nH]5)cc4)cc3)[nH]c2c1" ; returns value.
[out] 5.96

[in] For O=C(O)c1ccc2[nH]c(-c3ccc(OCCC(O)COc4ccc(-c5nc6cc(C(=O)O)ccc6[nH]5)cc4)cc3)nc2c1 (stereo not drawn) then?
[out] 5.46

[in] // next record "O=C(O)c1ccc2nc(-c3ccc(OCCCOc4ccc(-c5nc6ccc(C(=O)O)cc6[nH]5)cc4Br)c(Br)c3)[nH]c2c1"
[out] 5.77

---

biological target: hDfr (Homo sapiens, UniProt P00374); assay: human Dfr inhibition, kinetic assay; format: biochemical; conditions: selectivity
Sequence (P00374 whole entry): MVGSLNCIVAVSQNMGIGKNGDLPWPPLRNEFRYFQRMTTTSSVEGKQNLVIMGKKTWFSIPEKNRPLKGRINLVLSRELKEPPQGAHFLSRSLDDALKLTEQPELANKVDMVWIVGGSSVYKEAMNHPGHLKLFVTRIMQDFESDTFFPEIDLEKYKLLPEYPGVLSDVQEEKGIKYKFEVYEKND
Assay metric: inhibition of hDfr (in words)

{"Compound": "O=C(O)c1ccc2[nH]c(-c3ccc(OC/C=C/COc4ccc(-c5nc6cc(C(=O)O)ccc6[nH]5)cc4)cc3)nc2c1 [Compound 10]", "Measured target": "hDfr (Homo sapiens, UniProt P00374)", "Observed": "did not inhibit"}
{"Compound": "O=C(O)c1ccc2[nH]c(-c3ccc(OCc4ccc(COc5ccc(-c6nc7cc(C(=O)O)ccc7[nH]6)cc5)cc4)cc3)nc2c1 [Compound 11]", "Measured target": "hDfr (Homo sapiens, UniProt P00374)", "Observed": "did not inhibit"}
{"Compound": "O=C(O)c1ccc2[nH]c(-c3ccc(OCCC(O)COc4ccc(-c5nc6cc(C(=O)O)ccc6[nH]5)cc4)cc3)nc2c1 (stereo not shown) [Compound 3]", "Measured target": "hDfr (Homo sapiens, UniProt P00374)", "Observed": "no inhibition"}
{"Compound": "O=C(O)c1ccc2[nH]c(-c3ccc(OCc4ccccc4COc4ccc(-c5nc6cc(C(=O)O)ccc6[nH]5)cc4)cc3)nc2c1 [Compound 33]", "Measured target": "hDfr (Homo sapiens, UniProt P00374)", "Observed": "no inhibition"}

---

Exercise: for every item that follows, state its recorded pIC50.
Protein target, amino acids: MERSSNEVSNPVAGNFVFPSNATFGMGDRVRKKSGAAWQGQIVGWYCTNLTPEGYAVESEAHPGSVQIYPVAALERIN
Units for pIC50: none; it is -log10 of a concentration expressed in mol/L.

[in] Which pIC50 value is on record for O=C(O)c1ccc2nc(-c3ccc(OCCC(O)COc4ccc(-c5nc6ccc(C(=O)O)cc6[nH]5)cc4Br)c(Br)c3)[nH]c2c1 (stereo not shown) [Compound 20b] ?
[out] 4.10

[in] Same question for "O=C(O)c1ccc2nc(-c3ccc(OCCCOc4ccc(-c5nc6ccc(C(=O)O)cc6[nH]5)cc4Br)c(Br)c3)[nH]c2c1" please.
[out] 4.22

[in] How about this compound: "O=C(O)c1ccc2[nH]c(-c3cccc(OCC(O)COc4cccc(-c5nc6cc(C(=O)O)ccc6[nH]5)c4)c3)nc2c1"
[out] 3.40

[in] Again, but for O=C(O)c1ccc2[nH]c(-c3ccc(OCCC(O)COc4ccc(-c5nc6cc(C(=O)O)ccc6[nH]5)cc4)cc3)nc2c1 (stereo not shown)
[out] 3.96

[in] Subsequent entry: "O=C(O)c1ccc2[nH]c(-c3ccc(OC/C=C/COc4ccc(-c5nc6cc(C(=O)O)ccc6[nH]5)cc4)cc3)nc2c1"
[out] 4.05

---

Target: DfrB1 (Escherichia coli)
Sequence (P00383 1-78): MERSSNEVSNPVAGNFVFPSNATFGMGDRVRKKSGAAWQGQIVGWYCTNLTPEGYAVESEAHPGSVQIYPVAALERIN
pKi: −log10 of the molar value.
Rule: pKi of 5 or more gives 1 (yes); anything lower gives 0 (no).

[in] Confirm if pKi reported for the molecule "O=C(O)c1ccc2[nH]c(-c3ccc(OCc4ccc(COc5ccc(-c6nc7cc(C(=O)O)ccc7[nH]6)cc5)cc4)cc3)nc2c1" is 5 or above.
[out] 1 (yes)

[in] Repeat for the following molecule: O=C(O)c1ccc2nc(-c3ccc(OCCC(O)COc4ccc(-c5nc6ccc(C(=O)O)cc6[nH]5)cc4Br)c(Br)c3)[nH]c2c1 (stereo not drawn) [Compound 20b]
[out] 1 (yes)

[in] And "O=C(O)c1ccc2[nH]c(-c3ccc(OC/C=C/COc4ccc(-c5nc6cc(C(=O)O)ccc6[nH]5)cc4)cc3)nc2c1" ?
[out] 1 (yes)

[in] Okay, and COc1cc(Cc2cnc(N)nc2N)cc(OC)c1OC [TMP, Trimethoprim, reference compound] ?
[out] 0 (no)

---

For each of the compounds below, state its IC50.
Sequence of the target: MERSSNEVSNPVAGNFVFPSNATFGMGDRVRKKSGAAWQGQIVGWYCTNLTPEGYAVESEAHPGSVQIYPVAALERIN

[in] Form field: reported IC50 of O=C(O)c1ccc(OCCCCCCCCCCCCOc2ccc(C(=O)O)cc2)cc1 [Compound 15]
[out] > 250 µM

[in] Moving on to O=C(O)Cc1ccc(OCCCCCCOc2ccc(CC(=O)O)cc2)cc1 [Compound 16]
[out] > 500 µM

[in] Now this one: O=C(O)c1ccc(OCCCCCCOc2ccc(C(=O)O)cc2)cc1 [Compound 12]
[out] > 500 µM

[in] Then O=C(O)CCc1ccc(OCCCCOc2ccc(CCC(=O)O)cc2)cc1 [Compound 17] ?
[out] > 200 µM

[in] Repeat with O=C(O)c1ccc2cc(-c3ccc(OCCCCCCCCOc4ccc(-c5ccc6cc(C(=O)O)ccc6c5)cc4)cc3)ccc2c1 [Compound 18]
[out] > 200 µM

Data credit: paper PMC6648814
